Cited source: patent EP1984353B1

# System: phosphorylation of Histone H3
# assay_summary: HeLa cell 1-hour phospho-histone assay
# Format: cell-based
# measurement_conditions: Homo sapiens, HeLa, 1 h, HeLa cells, 1 hour; average; given as class symbols; read-out: pHH3 EC50_IP (Avg)
endpoint: EC50

INPUT: Quick one: EC50 of Cc1cc(-c2ccccc2)nnc1Nc1ccc(Oc2ncccc2-c2ccnc(NCCCC(=O)O)n2)cc1 ?
OUTPUT: 500 to 2500 nM

INPUT: Try O=S(=O)(O)CCCNc1nccc(-c2cccnc2Oc2ccc(Nc3nnc(-c4ccccc4)c4ccccc34)cc2)n1 next.
OUTPUT: 500 to 2500 nM

INPUT: Try c1ccc(-c2nnc(Nc3ccc(Oc4nccnc4-c4ccncc4)cc3)c3ccccc23)cc1 next.
OUTPUT: 500 to 2500 nM

INPUT: Try Cc1cc(-c2ccccc2)nnc1Nc1ccc(Oc2ncccc2-c2ccnc(NCCCN3CCN(C)CC3)n2)nc1 next.
OUTPUT: 100 to 500 nM

INPUT: Try CCN(CCO)CCCNc1nccc(-c2cccnc2Oc2ccc(Nc3nnc(-c4ccccc4)cc3C)cc2)n1 next.
OUTPUT: 100 to 500 nM

INPUT: Try Nc1nccc(-c2cccnc2Oc2ccc(Nc3nnc(C4CCCCC4)c4ccccc34)cn2)n1 next.
OUTPUT: ≤ 100 nM

INPUT: Try Cc1cc(-c2ccccc2)nnc1Nc1ccc(Oc2ncccc2-c2ccnc(NCCCN3CCN(C)CC3)n2)cc1 next.
OUTPUT: 100 to 500 nM
